# test-summary: Cytotoxicity against human HGC27 cells assessed as growth inhibition after 72 hrs by MTT assay
# Assay type: functional, cell-based
# condition-parameters: HGC-27, 72 h
Cut-off 7 µM on IC50: below means 1, at or above means -1.

Worked cases, answers included:
compound_string=CCOC(=O)[C@]1(C)CCC[C@@]2(C)[C@@H]3CC[C@@]4(C)C[C@]3(CC[C@@H]21)[C@H](CO)[C@H]4NC(=S)Nc1ccc(C)cc1 assigned_label=1
compound_string=CCOC(=O)[C@]1(C)CCC[C@@]2(C)[C@@H]3CC[C@@]4(C)C[C@]3(CC[C@@H]21)[C@H](CO)[C@H]4NC(=S)Nc1ccccc1C assigned_label=1
compound_string=CCOC(=O)[C@]1(C)CCC[C@@]2(C)[C@@H]3CC[C@@]4(C)C[C@]3(CC[C@@H]21)[C@H](CO)[C@H]4NC(=S)Nc1ccc([N+](=O)[O-])cc1 assigned_label=1

Q) Problem: For the compound `CCOC(=O)[C@]1(C)CCC[C@@]2(C)[C@@H]3CC[C@@]4(C)C[C@]3(CC[C@@H]21)[C@H](CO)[C@H]4NC(C)=O` , is IC50 under 7 µM?
A) -1

Q) Criterion: IC50 strictly below 7 µM. Is it met by `CCOC(=O)[C@]1(C)CCC[C@@]2(C)[C@@H]3CC[C@@]4(C)C[C@]3(CC[C@@H]21)[C@H](CO)[C@H]4NC(=S)Nc1c(C)cccc1C` ?
A) -1

Q) Find out if reported IC50 for `CCOC(=O)[C@]1(C)CCC[C@@]2(C)[C@@H]3CC[C@@]4(C)C[C@]3(CC[C@@H]21)C[C@H]4NC(=S)N[C@@H](C)c1ccccc1` is less than 7 µM
A) -1

Q) Item `CCOC(=O)[C@]1(C)CCC[C@@]2(C)[C@@H]3CC[C@@]4(C)C[C@]3(CC[C@@H]21)[C@H](CO)[C@H]4NC(=S)Nc1cccc(Br)c1` : IC50 beneath 7 µM, strictly?
A) -1

Q) Find out if reported IC50 for `CCOC(=O)[C@]1(C)CCC[C@@]2(C)[C@@H]3CC[C@@]4(C)C[C@]3(CC[C@@H]21)[C@H](CO)[C@H]4NC(=S)Nc1ccc(F)cc1` is less than 7 µM
A) 1

Q) IC50 under 7 µM? Item: `CCOC(=O)[C@]1(C)CCC[C@@]2(C)[C@@H]3CC[C@@]4(C)C[C@]3(CC[C@@H]21)[C@H](CO)[C@H]4NC(=S)Nc1ccc(OC)cc1`
A) -1

Q) API: query returns whether the compound falls strictly under 7 µM in IC50. Query: `CCOC(=O)[C@]1(C)CCC[C@@]2(C)[C@@H]3CC[C@@]4(C)C[C@]3(CC[C@@H]21)[C@H](CO)[C@H]4NC(=S)Nc1cccc(C)c1`
A) 1

Q) Lab log: compare recorded IC50 with 7 µM; is it strictly lower for `C[C@@]12CC[C@@H]3[C@@](CC[C@H]4[C@@]3(C)CCC[C@@]4(C)C(=O)O)(CC1=O)C2` ?
A) -1

Q) Determine if `CCOC(=O)[C@]1(C)CCC[C@@]2(C)[C@@H]3CC[C@@]4(C)C[C@]3(CC[C@@H]21)C[C@H]4NC(=S)NC1CCCCC1` shows IC50 strictly lower than 7 µM.
A) -1

The measured values listed here are drawn from ChEMBL document CHEMBL3784963.
